- target-under-test: Human Glucocorticoid Receptor (Homo sapiens, UniProt P04150)
- Construct: endogenous in cells
- Sequence (P04150 1-777): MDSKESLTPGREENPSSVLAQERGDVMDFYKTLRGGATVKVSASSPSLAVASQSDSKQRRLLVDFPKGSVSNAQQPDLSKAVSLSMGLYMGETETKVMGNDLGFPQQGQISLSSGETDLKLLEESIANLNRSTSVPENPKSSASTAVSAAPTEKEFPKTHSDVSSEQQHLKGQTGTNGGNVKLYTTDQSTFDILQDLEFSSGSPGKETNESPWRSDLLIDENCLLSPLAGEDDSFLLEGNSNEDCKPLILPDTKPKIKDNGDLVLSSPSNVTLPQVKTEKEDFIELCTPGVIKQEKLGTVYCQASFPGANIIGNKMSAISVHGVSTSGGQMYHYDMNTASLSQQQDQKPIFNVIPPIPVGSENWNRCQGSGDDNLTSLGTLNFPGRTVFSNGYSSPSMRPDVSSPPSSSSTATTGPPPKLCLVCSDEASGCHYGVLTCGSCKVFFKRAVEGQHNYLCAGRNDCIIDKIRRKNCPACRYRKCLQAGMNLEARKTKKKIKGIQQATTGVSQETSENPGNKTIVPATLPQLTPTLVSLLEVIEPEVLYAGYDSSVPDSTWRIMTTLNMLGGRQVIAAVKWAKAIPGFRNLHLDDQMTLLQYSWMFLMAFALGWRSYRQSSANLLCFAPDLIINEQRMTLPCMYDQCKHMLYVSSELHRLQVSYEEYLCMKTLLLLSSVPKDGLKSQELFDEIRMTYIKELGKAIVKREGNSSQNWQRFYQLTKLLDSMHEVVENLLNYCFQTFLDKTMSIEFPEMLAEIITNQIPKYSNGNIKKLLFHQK
- protocol-notes: functional in vitro glucocorticoid assay, sPAP reporter under MMTV LTR in transfected Hela cells
- condition-set: sPAP transcription in transfected Hela cells, 72 hours incubation
// values below are reported EC50

Consider the following illustrative entries.
compound	property-name	result-value
CCC(=O)O[C@]1(C(=O)SC2COC(=O)C2)[C@H](C)C[C@H]2[C@@H]3C[C@H](F)C4=CC(=O)C=C[C@]4(C)[C@@]3(F)[C@@H](O)C[C@@]21C (stereo partly drawn)	EC50	< 0.4 µM
CC1(C)O[C@@H]2C[C@H]3[C@@H]4C[C@H](F)C5=CC(=O)C=C[C@]5(C)[C@@]4(F)[C@@H](O)C[C@]3(C)[C@]2(C(=O)N[C@H]2COC(=O)C2)O1	EC50	< 0.4 µM

According to the records, this compound CCC(=O)O[C@]1(C(=O)SC2CCC(=O)O2)[C@H](C)C[C@H]2[C@@H]3C[C@H](F)C4=CC(=O)C=C[C@]4(C)[C@@]3(F)[C@@H](O)C[C@@]21C (stereo partly drawn) displays EC50 of < 0.4 µM
